- Experimental Target: human STING (WT) (Homo sapiens (Human), UniProt Q86WV6, H232R)
- Sequence (Q86WV6 149-345 H232R): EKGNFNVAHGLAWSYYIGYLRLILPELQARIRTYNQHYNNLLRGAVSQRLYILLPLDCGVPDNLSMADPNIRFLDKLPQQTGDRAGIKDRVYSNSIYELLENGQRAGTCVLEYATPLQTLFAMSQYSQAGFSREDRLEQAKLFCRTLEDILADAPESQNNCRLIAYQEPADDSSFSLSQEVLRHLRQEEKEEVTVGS
- Method Notes: biochemical

Molecule: NC(=O)c1ccc2c(c1)nc(-c1c(C(=O)O)sc3cccc(Cl)c13)n2CCCn1c(-c2c(C(=O)O)sc3cccc(Cl)c23)nc2cc(C(N)=O)ccc21 (single isomer, unassigned)
Kd [µM]: 23

---

- Experimental Target: human STING (HAQ) (Homo sapiens (Human), UniProt Q86WV6, G230A/H232R/R293Q)
- Sequence (Q86WV6 149-345 G230A/H232R/R293Q): as the sequence (Q86WV6 149-345 H232R) above, with G82A, R145Q counted along it
- Method Notes: Surface Plasmon Resonance (SPR), STING (HAQ)
- Recorded Conditions: read-out: SPR (HAQ) KD; biotinylated STING on streptavidin chip, 8° C.
Items are presented alongside their recorded Kd.

Molecule: NC(=O)c1ccc2c(c1)nc(-c1c(C(=O)O)sc3cccc(Cl)c13)n2CCCCn1c(-c2c(C(=O)O)sc3cccc(Cl)c23)nc2cc(C(N)=O)ccc21 [Example 3]
Experimental Target: human STING (HAQ) (Homo sapiens (Human), UniProt Q86WV6, G230A/H232R/R293Q)
Unit Name: nM
Kd: 5060
--
Molecule: CCOc1cccc2sc(C(=O)O)c(-c3nc4cc(C(N)=O)ccc4n3CCn3c(-c4c(C(=O)O)sc5cccc(OCC)c45)nc4cc(C(N)=O)ccc43)c12 [Example 24]
Experimental Target: human STING (HAQ) (Homo sapiens (Human), UniProt Q86WV6, G230A/H232R/R293Q)
Unit Name: nM
Kd: 37000
--
Molecule: COc1ccc(F)c2sc(C(=O)O)c(-c3nc4cc(C(N)=O)ccc4n3CCn3c(-c4c(C(=O)O)sc5c(F)ccc(OC)c45)nc4cc(C(N)=O)ccc43)c12 (single isomer, unassigned) [Example 13.1]
Experimental Target: human STING (HAQ) (Homo sapiens (Human), UniProt Q86WV6, G230A/H232R/R293Q)
Unit Name: nM
Kd: 4
--
Molecule: NC(=O)c1ccc2c(c1)nc(-c1c(C(=O)O)sc3c(F)ccc(Br)c13)n2CCn1c(-c2c(C(=O)O)sc3c(F)ccc(Br)c23)nc2cc(C(N)=O)ccc21 (single isomer, unassigned) [Example 20.1]
Experimental Target: human STING (HAQ) (Homo sapiens (Human), UniProt Q86WV6, G230A/H232R/R293Q)
Unit Name: nM
Kd: 1.65
--
Molecule: NC(=O)c1ccc2c(c1)nc(-c1c(C(=O)O)sc3c(F)ccc(Cl)c13)n2CCn1c(-c2c(C(=O)O)sc3c(F)ccc(Cl)c23)nc2cc(C(N)=O)ccc21 (single isomer, unassigned) [Example 2.2]
Experimental Target: human STING (HAQ) (Homo sapiens (Human), UniProt Q86WV6, G230A/H232R/R293Q)
Unit Name: nM
Kd: 124

---

- Experimental Target: human STING (WT) (Homo sapiens (Human), UniProt Q86WV6, H232R)
- Method Notes: Surface Plasmon Resonance (SPR), STING (WT)
- Recorded Conditions: read-out: SPR (WT) KD; biotinylated STING on streptavidin chip, 8° C.

Molecule: NC(=O)c1ccc2c(c1)nc(-c1c(C(=O)O)sc3cccc(Cl)c13)n2CCCn1c(-c2c(C(=O)O)sc3cccc(Cl)c23)nc2cc(C(N)=O)ccc21 (single isomer, unassigned) [Example 4.1]
Kd / nM: 500000
--
Molecule: NC(=O)c1ccc2c(c1)nc(-c1c(C(=O)O)sc3c(F)ccc(Cl)c13)n2CCn1c(-c2c(C(=O)O)sc3c(F)ccc(Cl)c23)nc2cc(C(N)=O)ccc21 (single isomer, unassigned) [Example 2.1]
Kd / nM: 31
--
Molecule: NC(=O)c1ccc2c(c1)nc(-c1c(C(=O)O)sc3cccc(Br)c13)n2CCn1c(-c2c(C(=O)O)sc3cccc(Br)c23)nc2cc(C(N)=O)ccc21 (single isomer, unassigned) [Example 11.1]
Kd / nM: 63
--
Molecule: COc1cccc2sc(C(=O)O)c(-c3nc4cc(C(N)=O)ccc4n3CCn3c(-c4c(C(=O)O)sc5cccc(OC)c45)nc4cc(C(N)=O)ccc43)c12 (single isomer, unassigned) [Example 5.2]
Kd / nM: 122
--
Molecule: COc1ccc(F)c2sc(C(=O)O)c(-c3nc4cc(C(N)=O)ccc4n3CCn3c(-c4c(C(=O)O)sc5c(F)ccc(OC)c45)nc4cc(C(N)=O)ccc43)c12 (single isomer, unassigned) [Example 13.1]
Kd / nM: 300
--
Molecule: NC(=O)c1ccc2c(c1)nc(-c1c(C(=O)O)sc3cccc(Br)c13)n2CCn1c(-c2c(C(=O)O)sc3cccc(Br)c23)nc2cc(C(N)=O)ccc21 (single isomer, unassigned) [Example 11.2]
Kd / nM: 1430
--
Molecule: NC(=O)c1ccc2c(c1)nc(-c1c(C(=O)O)sc3cccc(Cl)c13)n2CCCCn1c(-c2c(C(=O)O)sc3cccc(Cl)c23)nc2cc(C(N)=O)ccc21 [Example 3]
Kd / nM: 6300
--
Molecule: NC(=O)c1ccc2c(c1)nc(-c1c(C(=O)O)sc3c(F)ccc(Br)c13)n2CCn1c(-c2c(C(=O)O)sc3c(F)ccc(Br)c23)nc2cc(C(N)=O)ccc21 (single isomer, unassigned) [Example 20.1]
Kd / nM: 16
--
Molecule: NC(=O)c1ccc2c(c1)nc(-c1c(C(=O)O)sc3cccc(Cl)c13)n2CCn1c(-c2c(C(=O)O)sc3cccc(Cl)c23)nc2cc(C(N)=O)ccc21 (single isomer, unassigned) [Example 1.1]
Kd / nM: 119
--
Molecule: COc1nccc2sc(C(=O)O)c(-c3nc4cc(C(N)=O)ccc4n3CCn3c(-c4c(C(=O)O)sc5ccnc(OC)c45)nc4cc(C(N)=O)ccc43)c12 [Example 7]
Kd / nM: 80000

---

- Experimental Target: human STING (WT) (Homo sapiens (Human), UniProt Q86WV6, H232R)
- Method Notes: Differential scanning fluorimetry (DSF), huSTING (WT)
- Format: binding
- Recorded Conditions: compound 100 μM, 2 μM protein, Tm with ligand minus Tm of protein alone (1% DMSO)

Molecule: CCOC(=O)c1sc2cccc(Cl)c2c1-c1nc2cc(C(N)=O)ccc2n1CCn1c(-c2c(C(=O)OCC)sc3cccc(Cl)c23)nc2cc(C(N)=O)ccc21
Experimental Target: human STING (WT) (Homo sapiens (Human), UniProt Q86WV6, H232R)
ΔTm at 100 µM: 1.84 °C
//
Molecule: Cc1cccc2sc(C(=O)O)c(-c3nc4cc(C(N)=O)ccc4n3CCn3c(-c4c(C(=O)O)sc5cccc(C)c45)nc4cc(C(N)=O)ccc43)c12 (single isomer, unassigned)
Experimental Target: human STING (WT) (Homo sapiens (Human), UniProt Q86WV6, H232R)
ΔTm at 100 µM: 10.5 °C
//
Molecule: NC(=O)c1ccc2c(c1)nc(-c1c(C(=O)O)sc3cccc(Cl)c13)n2CCCCn1c(-c2c(C(=O)O)sc3cccc(Cl)c23)nc2cc(C(N)=O)ccc21
Experimental Target: human STING (WT) (Homo sapiens (Human), UniProt Q86WV6, H232R)
ΔTm at 100 µM: -1.83 °C

---

// reported ΔTm at 100 µM for each item listed
- Experimental Target: human STING (HAQ) (Homo sapiens (Human), UniProt Q86WV6, G230A/H232R/R293Q)
- Method Notes: Differential scanning fluorimetry (DSF), huSTING (HAQ)
- Type: binding
- Recorded Conditions: compound 100 μM, 2 μM protein, Tm with ligand minus Tm of protein alone (1% DMSO)
Readout: ΔTm at 100 µM

Molecule: CCOC(=O)c1sc2cccc(Cl)c2c1-c1nc2c(OC)c(C(N)=O)ccc2n1CCn1c(-c2c(C(=O)OCC)sc3cccc(Cl)c23)nc2c(OC)c(C(N)=O)ccc21
Experimental Target: human STING (HAQ) (Homo sapiens (Human), UniProt Q86WV6, G230A/H232R/R293Q)
Result Value: 4.33 °C

Molecule: NC(=O)c1ccc2c(c1)nc(-c1c(C(=O)O)sc3c(F)ccc(Cl)c13)n2CCn1c(-c2c(C(=O)O)sc3c(F)ccc(Cl)c23)nc2cc(C(N)=O)ccc21 (single isomer, unassigned)
Experimental Target: human STING (HAQ) (Homo sapiens (Human), UniProt Q86WV6, G230A/H232R/R293Q)
Result Value: 32 °C

Molecule: NC(=O)c1ccc2c(c1)nc(-c1c(C(=O)O)sc3cccc(Cl)c13)n2CCCCn1c(-c2c(C(=O)O)sc3cccc(Cl)c23)nc2cc(C(N)=O)ccc21
Experimental Target: human STING (HAQ) (Homo sapiens (Human), UniProt Q86WV6, G230A/H232R/R293Q)
Result Value: -0.55 °C

Molecule: NC(=O)c1ccc2c(c1)nc(-c1c(C(=O)O)sc3cccc(Cl)c13)n2CCCn1c(-c2c(C(=O)O)sc3cccc(Cl)c23)nc2cc(C(N)=O)ccc21 (single isomer, unassigned)
Experimental Target: human STING (HAQ) (Homo sapiens (Human), UniProt Q86WV6, G230A/H232R/R293Q)
Result Value: 4.56 °C

Molecule: COc1cccc2sc(C(=O)O)c(-c3nc4cc(C(N)=O)ccc4n3CCn3c(-c4c(C(=O)O)sc5cccc(OC)c45)nc4cc(C(N)=O)ccc43)c12 (single isomer, unassigned)
Experimental Target: human STING (HAQ) (Homo sapiens (Human), UniProt Q86WV6, G230A/H232R/R293Q)
Result Value: 30.9 °C

Cited source: patent US12384801B2
